tested on: SK-MEL-5 melanoma; experiment: NCI-60 one-dose screen, 48 h; details: 10 µM unless noted
Compounds without any hit were thinned out: in the full panel of roughly 83,000, 20% have a hit. Active and inactive are the calls of the source. How the source made its calls: active means growth percent below 10; inactive means the rest.
// one of active, inactive, no free text

Give the logged outcome of this assay for the following compound: CNC(=O)Nc1ccc(-c2ccc3ncnc(Nc4cccc(Cl)c4)c3c2)cc1
inactive

# outcome recorded in this test, key = CC1(C)CC[C@]2(CO)CC[C@]3(C)[C@](O)([C@H](O)C[C@@H]4[C@@]5(C)CCCNC(C)(C)[C@@H]5CC[C@]43C)[C@@H]2C1
inactive

# lookup: test call for COc1ccc(C2CC(c3ccccc3)=NN2C(=O)c2cc(OC)c(OC)c(OC)c2)cc1O (stereo not drawn)
inactive

Identify the outcome logged in this assay for the compound shown: COC12C=C/C(=C(/C(=O)OCc3csc(SC)n3)C(=O)CCCCCCCCC3(OC)C=C/C(=C(/C(=O)OCc4cnc(SC)s4)C(=O)CCCCCCCC1)O3)O2 (stereo not drawn)
inactive

Assay result, entry C=C1C(=O)O[C@H]2[C@H]1CC/C(COC(=O)C(=O)c1c[nH]c3ccc(Cl)cc13)=C\CC[C@@]1(C)O[C@@H]21 — outcome?
active

Given O=C(Nc1ccccc1O)c1ccc(CNc2ccnc(C(F)(F)F)c2)cc1 , state the outcome it received in this test.
inactive

Given Nc1nc(C(=O)N/N=C/c2ccc(F)cc2)nn1-c1ccc(S(N)(=O)=O)cc1 , state the outcome it received in this test.
inactive

----------
tested on: 786-0 renal; experiment: NCI-60 one-dose screen, 48 h; conditions: 10 µM unless noted
This is part of a sample that, as a whole, favours compounds with a hit. Of some 83,000 tested, about 20% had one in any assay. The source made the active and inactive calls. The calls were made as follows: active = growth percent below 10; inactive = the rest.
The reply should name one outcome from Y for active, N for inactive

Worked set:
CCOc1ccc(/C=C/C(=O)c2cccc(OCCCOc3cccc(C(=O)/C=C/c4ccc(OCC)cc4)c3)c2)cc1 | N
Oc1ccc(-c2nc3ccc4[nH]ncc4c3c3c2CCCC3)c(F)c1 | N
CN(C)CCn1c(=O)c2ccccc2n2nc3ccccc3c12 | N
COC(=O)c1sccc1-c1cc(O)c(C(=O)Nc2ccccc2)s1 | N
Cc1cc(=O)n(C(=S)Nc2ccc(Cl)cc2)c2cc(O)ccc12 | N

Hey, what did the test say about COc1ccc(C=Nc2c(C(=O)Nc3cccc(Cl)c3C)sc3nc(C)c(C(=O)/C=C/c4ccc(OC)cc4)cc23)cc1 ?
N

What is the recorded call for this compound in the test? C#CCOc1cccc(Nc2ncnc3cc(NC(=O)CCl)ccc23)c1
Y

----------
system: T-47D breast; test: NCI-60 one-dose screen, 48 h (100 = growth as untreated, 0 = no growth, -100 = all killed); conditions: 10 µM unless noted
Compounds without any hit were thinned out: in the full panel of roughly 83,000, 20% have a hit. The source made the active and inactive calls. Rule for the calls: active = growth percent below 10; inactive = the rest.
READOUT TYPE: growth

Cc1[nH]n(-c2cccc(Cl)c2)c(=O)c1/C=C1\C=c2ccccc2=CC1=O | -7.69% (active)
CS(=O)(=O)Nc1cc(-c2ccc3ncnc(Nc4ccc(OCc5ccccn5)c(Cl)c4)c3c2)cnc1Cl | -25.3% (active)
COC1C(O)CC(OC2CC(OC3CC(O[C@@H]4C(=O)c5c(cc6cc(OC7CC(OC8CC(O)C(O)C(C)O8)C(O)C(C)O7)c(C)c(O)c6c5O)CC4[C@H](OC)C(=O)O)OC(C)C3O)OC(C)C2O)OC1C (stereo not given in full) | 25.5% (inactive)
Cc1cc(C)c2c(c1)N(C)c1ncnc(-n3c(C)nc4cc(C)ccc43)c1CC2C (stereo not given) | 48.9% (inactive)
O=C(/C=C/C12c3ccccc3C(c3ccccc31)C1C(=O)NC(=O)C12)c1ccco1 (stereo not given) | 18.6% (inactive)
O=S(Nc1ccccc1)c1ccc(Cl)cc1 (stereo not given) | 90.7% (inactive)
Cc1nc2sc(C(=O)Nc3cccc4ccccc34)c(N)c2cc1C(=O)c1ccccc1 | 53.7% (inactive)
COc1ccc(CN2C(=O)OC(C)(COC(C)=O)C2=O)cc1 (stereo not given) | 91.9% (inactive)
COc1cc(/C=C2\C(=O)N(CCCOc3cc(O)c4c(=O)cc(-c5ccccc5)oc4c3)c3ccccc32)cc(OC)c1O | 44.6% (inactive)
O=[N+]([O-])c1ccccc1Sc1ccccc1[N+](=O)[O-] | 81.5% (inactive)

I'd like to know its growth. The molecule in question is COc1cccc(CNc2c3ccccc3nc3ccccc23)c1OC
47.5% (inactive)

Requested field: growth. Item: COc1ccc2c(c1)oc1c(C)c3c(c(C)c12)C(=O)N(CCOS(C)(=O)=O)C3=O
103% (inactive)

I would be grateful if you could share the reported growth for Cc1ccc(NC(=O)c2sc3nc(C)c(C(O)c4ccccc4)cc3c2N)cc1 (stereo not given) .
42.3% (inactive)

Could you share which growth value was measured for C=C1C(=O)O[C@H]2[C@H]1CC/C(CNC(=O)Cc1c[nH]c3ccccc13)=C\CC[C@@]1(C)O[C@@H]21 ?
-9.45% (active)

Request the reported growth associated with COc1ccc(/C=C2\c3cc(OC)c(OC)c(OC)c3CC[C@@H]2O)cc1F
43.6% (inactive)

Endpoint output: growth of O=C(CSc1nnnn1-c1ccccc1)Nc1ccc(Oc2ccccc2)cc1 . Value?
90.9% (inactive)

What value of measured growth is listed for COc1ccc(C/C(C)=C(\c2ccc(O)cc2)c2ccc(OCCN3CCCCC3)cc2)cc1 ?
53.8% (inactive)

For COc1ccc(C=Nc2c(C(=O)Nc3cccc(Cl)c3C)sc3nc(C)c(C(=O)/C=C/c4ccc(OC)cc4)cc23)cc1 , what is its reported growth?
24.3% (inactive)

Quick check: growth of COC(=O)[C@@]12CC=C(C)[C@]3(C[C@H](c4ccoc4)OC3=O)[C@H]1C=C[C@@H](O)[C@@]2(O)C(=O)OC ?
110% (inactive)

Please look up its growth: O=C1Nc2ccccc2/C1=N/N1C(=O)CN(CCCl)C1=O
102% (inactive)
